- TEST SYSTEM: UniProt:P30542
- Sequence (P30542 whole entry): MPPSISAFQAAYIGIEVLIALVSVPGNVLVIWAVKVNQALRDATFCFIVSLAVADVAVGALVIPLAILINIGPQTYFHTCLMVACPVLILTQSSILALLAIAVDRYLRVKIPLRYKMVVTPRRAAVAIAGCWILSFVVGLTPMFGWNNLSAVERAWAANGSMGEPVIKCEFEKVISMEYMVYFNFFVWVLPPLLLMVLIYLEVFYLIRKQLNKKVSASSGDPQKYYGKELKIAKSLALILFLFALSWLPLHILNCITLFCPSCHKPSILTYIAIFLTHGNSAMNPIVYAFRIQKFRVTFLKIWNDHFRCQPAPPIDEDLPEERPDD
- PROTOCOL TEXT: Displacement of [3H]CPX from human recombinant adenosine A1 receptor expressed in CHO cells
pKi: −log10 of the molar value.
ENDPOINT LABEL: pKi

Reference set, count: 5
COMPOUND STRUCTURE STRING: CCCCn1c(=O)c2[nH]c(-c3cnn(Cc4cccc(F)c4)c3)nc2n(C)c1=O
TEST SYSTEM: UniProt:P30542
pKi: 6.52
--
COMPOUND STRUCTURE STRING: CCCn1c(=O)c2[nH]c(-c3cnn(Cc4ccccc4)c3)nc2n(CC)c1=O
TEST SYSTEM: UniProt:P30542
pKi: 6.56
--
COMPOUND STRUCTURE STRING: CCCn1c(=O)c2[nH]c(-c3cnn(Cc4ccccn4)c3)nc2n(CC)c1=O
TEST SYSTEM: UniProt:P30542
pKi: 6.39
--
COMPOUND STRUCTURE STRING: CCCCn1c(=O)c2[nH]c(-c3cnn(Cc4ccccc4)c3)nc2n(C)c1=O
TEST SYSTEM: UniProt:P30542
pKi: 6.38
--
COMPOUND STRUCTURE STRING: CCCn1c(=O)c2[nH]c(-c3cnn(Cc4cccc(C(F)(F)F)c4)c3)nc2n(C)c1=O
TEST SYSTEM: UniProt:P30542
pKi: 6.36

[a] CCCCn1c(=O)c2[nH]c(-c3cnn(Cc4cccc(C(F)(F)F)c4)c3)nc2n(C)c1=O
[b] CCn1c(=O)n(CC2CC2)c(=O)c2[nH]c(-c3cnn(Cc4cccc(C(F)(F)F)c4)c3)nc21
stdin: Between these two entries, a and b , state which has the higher pKi. Answer = label.
stdout: b
(b: 6.66, a: 6.37)
